- TARGET SYSTEM: T1, human DKK1 (human, UniProt O94907 32-266)
- T1 construct: also called huDKK1; hDKK1
- T1 sequence: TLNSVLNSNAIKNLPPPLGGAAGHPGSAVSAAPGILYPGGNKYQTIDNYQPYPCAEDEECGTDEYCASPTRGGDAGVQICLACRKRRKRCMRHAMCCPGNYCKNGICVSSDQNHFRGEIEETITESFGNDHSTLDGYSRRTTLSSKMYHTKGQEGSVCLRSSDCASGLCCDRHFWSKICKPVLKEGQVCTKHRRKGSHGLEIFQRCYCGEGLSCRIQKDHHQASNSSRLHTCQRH
- ASSAY NAME: BiaCore 2000
READOUT KIND: koff (s⁻¹)
Express your answer in s⁻¹, writing the number without its unit.

For reference, reported koff for 2.4.1 (antibody, V domains shown, Fully human hybridoma IgG, kappa (Vk)) VH: QVQLMQSGAEVKKPGASVKVSCKASGYTFTSYGISWVRQAPGQGLEWMGWISADNGHTNYAQKLQGRVTMTTDTSTSTAYMELRSLRSDDTAVYYCARDGELLNYYYYYGMDVWGQGTTVTVSS VL: DIQMTQSPSSLSASVGDRVTITCRASQGIRDDLGWFQQKPGKAPKRLIYAASSLQSGVPSRFSGSGSGTEFTLTISSLQPEDFATYYCLQHNSYPCSFGQGTKLEFK stands at 0.0006
